The measurements presented in this section are drawn from the supplement of paper PMC11061612.

Test system: TE-15 (Esophageal Squamous Cell Carcinoma)
Test: Bliss excess, mean over the matrix (fraction); higher = more synergy
Form field: Bliss excess (one value per entry).

INSERT INTO assay_data (compound, target_system, observed_property, result) VALUES
  ('Cc1c2c(nn1C)CSCc1cc(n(C)n1)CSc1cc(c3ccccc3c1)OCCCc1c(C(=O)O)n(C)c3c-2c(Cl)ccc13 [AZD5991] + CC1(C)CCC(CN2CCN(c3ccc(C(=O)NS(=O)(=O)c4ccc(NCC5CCOCC5)c([N+](=O)[O-])c4)c(Oc4cnc5[nH]ccc5c4)c3)CC2)=C(c2ccc(Cl)cc2)C1 [Venetoclax] (first compound max 1 µM, 7x7, partner max 1 µM)', 'TE-15 (Esophageal Squamous Cell Carcinoma)', 'Bliss excess', -0.05);

Lab note: next compound to report on.
Return Bliss excess (reported value) for this compound: CN(CCO)CC[C@H](CSc1ccccc1)Nc1ccc(S(=O)(=O)NC(=O)c2ccc(N3CCC([C@@H](O)c4ccccc4-c4ccc(Cl)cc4)CC3)cc2)cc1S(=O)(=O)C(F)(F)F [AZD4320] + Cc1cc2ncnn2cc1Nc1ncc2c(n1)n(C1CCOCC1)c(=O)n2C [AZD7648] (first compound max 1 µM, 7x7, partner max 10 µM)
-0.046

----------
Tested on: LB831-BLC (Bladder Carcinoma)
Experiment: Bliss excess, mean over the matrix (fraction); higher = more synergy
Rule: Bliss excess of -0.05 or more gives rule met; anything lower gives rule not met.

Please review the following examples before continuing.
INSERT INTO results (compound, target_system, class) VALUES
  ('CN(CCO)CC[C@H](CSc1ccccc1)Nc1ccc(S(=O)(=O)NC(=O)c2ccc(N3CCC([C@@H](O)c4ccccc4-c4ccc(Cl)cc4)CC3)cc2)cc1S(=O)(=O)C(F)(F)F [AZD4320] + C=CCn1c(=O)c2cnc(Nc3ccc(N4CCN(C)CC4)cc3)nc2n1-c1cccc(C(C)(C)O)n1 [AZD1775] (first compound max 1 µM, partner max 1 µM)', 'LB831-BLC (Bladder Carcinoma)', 'rule met'),
  ('CN(CCO)CC[C@H](CSc1ccccc1)Nc1ccc(S(=O)(=O)NC(=O)c2ccc(N3CCC([C@@H](O)c4ccccc4-c4ccc(Cl)cc4)CC3)cc2)cc1S(=O)(=O)C(F)(F)F [AZD4320] + C[C@@H]1COCCN1C2=NC(=NC(=C2)C3(CC3)[S@](=N)(=O)C)C4=C5C=CNC5=NC=C4 [AZD6738] (first compound max 1 µM, 7x7, partner max 10 µM)', 'LB831-BLC (Bladder Carcinoma)', 'rule met'),
  ('COc1nnc2ccc(N3CCC(c4ccc(OCCN5CCN(C)C(=O)[C@H]5C)cc4)CC3)nn12 [AZD5153] + C[C@@H]1COCCN1C2=NC(=NC(=C2)C3(CC3)[S@](=N)(=O)C)C4=C5C=CNC5=NC=C4 [AZD6738] (first compound max 1 µM, 7x7, partner max 10 µM)', 'LB831-BLC (Bladder Carcinoma)', 'rule met');

Check this compound for Bliss excess at or above -0.05: C=CCn1c(=O)c2cnc(Nc3ccc(N4CCN(C)CC4)cc3)nc2n1-c1cccc(C(C)(C)O)n1 [AZD1775] + Nc1ccn([C@@H]2O[C@H](CO)[C@@H](O)C2(F)F)c(=O)n1 [Gemcitabine] (first compound max 1 µM, partner max 0.3 µM)
rule met

Bliss excess >= -0.05 for Cc1cc2ncnn2cc1Nc1ncc2c(n1)n(C1CCOCC1)c(=O)n2C [AZD7648] + CCN(CCO)CCCOc1ccc2c(Nc3cc(CC(=O)Nc4cccc(F)c4)[nH]n3)ncnc2c1 [AZD2811] (first compound max 10 µM, 7x7, partner max 1 µM) ?
rule met

Hi, just wondering whether Cc1nc(Nc2ncc(C(=O)Nc3c(C)cccc3Cl)s2)cc(N2CCN(CCO)CC2)n1 [Dasatinib] + CC(=O)Nc1cccc(-n2c(=O)n(C3CC3)c(=O)c3c(Nc4ccc(I)cc4F)n(C)c(=O)c(C)c32)c1 [Trametinib] (first compound max 2 µM, 7x7, partner max 1 µM) shows Bliss excess of -0.05 or higher.
rule not met

Determine whether this compound has Bliss excess no lower than -0.05: COc1cccc(OCCCN)c1-c1cc(Nc2cnc(C#N)cn2)n[nH]1 [Prexasertib] + Cc1cc2ncnn2cc1Nc1ncc2c(n1)n(C1CCOCC1)c(=O)n2C [AZD7648] (first compound max 1 µM, 7x7, partner max 10 µM)
rule not met

API: above_or_equal(metric=Bliss excess, cutoff=-0.05) for item COc1nnc2ccc(N3CCC(c4ccc(OCCN5CCN(C)C(=O)[C@H]5C)cc4)CC3)nn12 [AZD5153] + Cn1cnc2c(F)c(Nc3ccc(Br)cc3Cl)c(C(=O)NOCCO)cc21 [Selumetinib] (first compound max 1 µM, 7x7, partner max 10 µM)
rule met

----------
System: ME-1 (Acute Myeloid Leukemia)
Assay: combination Emax (second highest fraction inhibited in the dose matrix, 72 h); higher = more inhibition; extreme values may be limits of the assay
observed-property: combination Emax
Give the figure by itself; no unit, no explanation.

Report its combination Emax with ME-1 (Acute Myeloid Leukemia) as the test system: COc1cc2c(cc1OCCCCCOc1cc3c(cc1OC)C(=O)N1C=C(C)C[C@H]1C=N3)N=C[C@@H]1CC(C)=CN1C2=O [SG3199] + O=C(c1cc(Cc2n[nH]c(=O)c3ccccc23)ccc1F)N1CCN(C(=O)C2CC2)CC1 [Olaparib] (first compound max 0.001 µM, 7x7, partner max 10 µM)
0.163

Answer with combination Emax of CC(=O)c1c(C)c2cnc(Nc3ccc(N4CCNCC4)cn3)nc2n(C2CCCC2)c1=O [Palbociclib] + Cn1cnc2c(F)c(Nc3ccc(Br)cc3Cl)c(C(=O)NOCCO)cc21 [Selumetinib] (first compound max 10 µM, 7x7, partner max 10 µM) measured for ME-1 (Acute Myeloid Leukemia).
0.428

Please report the measured combination Emax for NC1(C(=O)N[C@@H](CCO)c2ccc(Cl)cc2)CCN(c2ncnc3[nH]ccc23)CC1 [Capivasertib] + Cn1cnc2c(F)c(Nc3ccc(Br)cc3Cl)c(C(=O)NOCCO)cc21 [Selumetinib] (first compound max 10 µM, 7x7, partner max 10 µM) tested on ME-1 (Acute Myeloid Leukemia).
0.342

Provide measured combination Emax on ME-1 (Acute Myeloid Leukemia) for N#Cc1cnc(Nc2cc(NC[C@H]3CNCCO3)c(C(F)(F)F)cn2)cn1 [SRA737] + CCc1c2c(nc3ccc(O)cc13)-c1cc3c(c(=O)n1C2)COC(=O)[C@]3(O)CC [SN-38] (first compound max 10 µM, 7x7, partner max 0.3 µM) please.
0.675

----------
Test system: DEL (T-Cell Non-Hodgkin's Lymphoma)
Test: combination Emax (second highest fraction inhibited in the dose matrix, 72 h); higher = more inhibition; extreme values may be limits of the assay
Decision: combination Emax compared against 0.8; not below it gives t, below it gives f.

Worked cases, answers included:
INSERT INTO results (compound, target_system, class) VALUES
  ('CN(CCO)CC[C@H](CSc1ccccc1)Nc1ccc(S(=O)(=O)NC(=O)c2ccc(N3CCC([C@@H](O)c4ccccc4-c4ccc(Cl)cc4)CC3)cc2)cc1S(=O)(=O)C(F)(F)F [AZD4320] + Cn1cnc2c(F)c(Nc3ccc(Br)cc3Cl)c(C(=O)NOCCO)cc21 [Selumetinib] (first compound max 1 µM, 7x7, partner max 3 µM)', 'DEL (T-Cell Non-Hodgkin''s Lymphoma)', 't'),
  ('Cc1c2c(nn1C)CSCc1cc(n(C)n1)CSc1cc(c3ccccc3c1)OCCCc1c(C(=O)O)n(C)c3c-2c(Cl)ccc13 [AZD5991] + CCN(CCO)CCCOc1ccc2c(Nc3cc(CC(=O)Nc4cccc(F)c4)[nH]n3)ncnc2c1 [AZD2811] (first compound max 1 µM, 7x7, partner max 1 µM)', 'DEL (T-Cell Non-Hodgkin''s Lymphoma)', 't'),
  ('Cc1cc2ncnn2cc1Nc1ncc2c(n1)n(C1CCOCC1)c(=O)n2C [AZD7648] + CCN(CCO)CCCOc1ccc2c(Nc3cc(CC(=O)Nc4cccc(F)c4)[nH]n3)ncnc2c1 [AZD2811] (first compound max 10 µM, 7x7, partner max 1 µM)', 'DEL (T-Cell Non-Hodgkin''s Lymphoma)', 'f'),
  ('CC1(C)CCC(CN2CCN(c3ccc(C(=O)NS(=O)(=O)c4ccc(NCC5CCOCC5)c([N+](=O)[O-])c4)c(Oc4cnc5[nH]ccc5c4)c3)CC2)=C(c2ccc(Cl)cc2)C1 [Venetoclax] + CCN(CCO)CCCOc1ccc2c(Nc3cc(CC(=O)Nc4cccc(F)c4)[nH]n3)ncnc2c1 [AZD2811] (first compound max 1 µM, 7x7, partner max 1 µM)', 'DEL (T-Cell Non-Hodgkin''s Lymphoma)', 'f'),
  ('CC1(C)CCC(CN2CCN(c3ccc(C(=O)NS(=O)(=O)c4ccc(NCC5CCOCC5)c([N+](=O)[O-])c4)c(Oc4cnc5[nH]ccc5c4)c3)CC2)=C(c2ccc(Cl)cc2)C1 [Venetoclax] + C[C@@H](Nc1cc(F)cc(F)c1)c1cc(C(=O)N(C)C)cc2c(=O)cc(N3CCOCC3)oc12 [AZD8186] (first compound max 1 µM, 7x7, partner max 3 µM)', 'DEL (T-Cell Non-Hodgkin''s Lymphoma)', 'f');

Exam item: decide whether the reported combination Emax for C[C@@H](c1ccc2nccn2c1)n1nnc2ncc(-c3cnn(C)c3)nc21 [Savolitinib] + Cc1c2c(nn1C)CSCc1cc(n(C)n1)CSc1cc(c3ccccc3c1)OCCCc1c(C(=O)O)n(C)c3c-2c(Cl)ccc13 [AZD5991] (first compound max 1 µM, 7x7, partner max 1 µM) is at least 0.8.
t
